Biological target: human recombinant HDAC6 (Homo sapiens)
Assay: HDAC6 enzyme activity inhibition assay (HDAC Fluorimetric Drug Discovery Kit)
Details: same protocol as the HDAC1 enzyme activity test
pIC50: −log10 of the molar value.
Below, each entry is listed with its recorded pIC50.
result type: pIC50

| compound | value reported |
| --- | --- |
| CCS(=O)(=O)N(Cc1ccc(-c2nnc(C(F)F)o2)cn1)c1cccc2cnn(C)c12 [Compound 11541] | 7.80 |
| CCS(=O)(=O)N(Cc1ccc(-c2nnc(C(F)(F)F)o2)cn1)c1ccccc1 [Compound 11430] | 7.38 |
| CS(=O)(=O)N1CCC(S(=O)(=O)N(Cc2ccc(-c3nnc(C(F)F)o3)cn2)c2ccccc2)CC1 [Compound 11426] | 7.89 |

---

Molecular target: human recombinant HDAC6 (Homo sapiens)
Sequence (Q9UBN7 1-1215): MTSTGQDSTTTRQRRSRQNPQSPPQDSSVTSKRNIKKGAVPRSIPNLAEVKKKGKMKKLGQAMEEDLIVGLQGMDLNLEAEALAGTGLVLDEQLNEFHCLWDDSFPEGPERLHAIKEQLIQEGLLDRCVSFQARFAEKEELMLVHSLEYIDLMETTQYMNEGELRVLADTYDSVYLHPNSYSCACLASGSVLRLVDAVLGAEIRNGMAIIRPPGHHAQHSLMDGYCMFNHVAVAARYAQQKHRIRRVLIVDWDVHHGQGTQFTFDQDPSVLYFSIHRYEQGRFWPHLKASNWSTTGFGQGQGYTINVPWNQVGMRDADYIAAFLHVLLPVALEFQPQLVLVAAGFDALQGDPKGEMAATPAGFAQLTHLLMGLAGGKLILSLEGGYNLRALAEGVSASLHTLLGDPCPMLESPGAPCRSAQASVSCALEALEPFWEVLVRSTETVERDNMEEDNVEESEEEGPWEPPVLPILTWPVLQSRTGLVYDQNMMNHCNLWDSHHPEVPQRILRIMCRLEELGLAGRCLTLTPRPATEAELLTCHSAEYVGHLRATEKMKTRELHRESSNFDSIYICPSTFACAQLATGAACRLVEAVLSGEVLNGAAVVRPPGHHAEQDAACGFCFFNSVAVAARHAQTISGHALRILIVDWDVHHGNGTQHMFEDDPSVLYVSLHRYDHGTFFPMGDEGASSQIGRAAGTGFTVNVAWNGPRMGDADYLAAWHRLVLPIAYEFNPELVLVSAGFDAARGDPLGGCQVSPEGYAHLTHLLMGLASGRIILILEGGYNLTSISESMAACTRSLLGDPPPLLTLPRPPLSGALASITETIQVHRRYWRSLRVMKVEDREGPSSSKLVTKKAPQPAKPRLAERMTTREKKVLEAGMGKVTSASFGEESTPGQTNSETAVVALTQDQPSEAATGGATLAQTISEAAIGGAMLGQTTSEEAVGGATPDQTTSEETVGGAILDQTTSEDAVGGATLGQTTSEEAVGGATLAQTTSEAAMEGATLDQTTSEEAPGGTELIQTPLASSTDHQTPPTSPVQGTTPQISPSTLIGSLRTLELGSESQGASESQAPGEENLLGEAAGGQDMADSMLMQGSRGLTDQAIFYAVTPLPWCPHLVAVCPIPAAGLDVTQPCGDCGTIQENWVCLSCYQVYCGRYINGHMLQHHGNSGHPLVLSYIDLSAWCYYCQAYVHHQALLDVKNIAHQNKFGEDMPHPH
Test: HDAC6 enzyme activity inhibition assay (HDAC Fluorimetric Drug Discovery Kit)
Details: same protocol as the HDAC1 enzyme activity test
Below, each entry is listed with its recorded IC50.

| molecular string | IC50 (nM) |
| --- | --- |
| C[C@H]1CCCN1CCCS(=O)(=O)N(Cc1ccc(-c2nnc(C(F)F)o2)cc1)c1ccccc1 | 71.1 |
| O=C(C1CC1)N1CC(N2CCC(S(=O)(=O)N(Cc3ccc(-c4nnc(C(F)F)o4)cc3)c3cccc(Cl)c3)CC2)C1 | 69.4 |
| CS(=O)(=O)N(Cc1ccc(-c2nnc(C(F)F)o2)cn1)C1CCCCC1 | 69 |
| O=S(=O)(CCN1CCC1)N(Cc1ccc(-c2nnc(C(F)F)o2)cc1)c1ccccc1 | 68.2 |
| CCn1ncc2ccc(N(Cc3ccc(-c4nnc(C(F)F)o4)cc3)S(C)(=O)=O)cc21 | 68.2 |

---

Below, each entry is listed with its recorded HDAC6 selectivity (fold).
Target: human recombinant HDAC6 (Homo sapiens)
Construct: purchased Calbiochem 382180
Assay: HDAC6 enzyme activity inhibition assay (HDAC Fluorimetric Drug Discovery Kit)
Assay type: biochemical
Details: HDAC1 vs HDAC6

| compound | HDAC6 selectivity (fold) |
| --- | --- |
| CCCCN(Cc1ccc(-c2nnc(C(F)(F)F)o2)cc1)S(C)(=O)=O | 243 |
| CCC(C)S(=O)(=O)N(Cc1ccc(-c2nnc(C(F)F)o2)cc1F)c1ccccc1 (stereo not drawn) | 3030 |
| CS(=O)(=O)N(Cc1ccc(-c2nnc(C(F)(F)F)o2)c(F)c1)c1ccccc1 | 426 |
| O=S(=O)(CCN1Cc2ccccc2C1)N(Cc1ccc(-c2nnc(C(F)F)o2)cc1)c1ccccc1 | 264 |
| CS(=O)(=O)N(Cc1ccc(-c2nnc(C(F)F)o2)cc1F)[C@@H]1CCc2ccccc21 | 230 |
| CS(=O)(=O)N(Cc1ccc(-c2nnc(C(F)F)o2)cn1)c1ccccc1 | 11111 |
| Cc1cccc(N(Cc2ccc(-c3nnc(C(F)F)o3)cn2)S(=O)(=O)C2CCN(C3CCOCC3)CC2)c1 | 1309 |
| O=S(=O)(C1CCOCC1)N(Cc1ccc(-c2nnc(C(F)(F)F)o2)cn1)c1ccccc1 | 453 |
| O=S(=O)(CCN1CCN(C/C=C/c2ccccc2)CC1)N(Cc1ccc(-c2nnc(C(F)F)o2)cc1)c1ccccc1 | 370 |
| CS(=O)(=O)N(Cc1ccc(-c2nnc(C(F)F)o2)cc1)c1ccc2c(c1)CN(C1COC1)C2 | 57 |
| CCS(=O)(=O)N(Cc1ccc(-c2nnc(C(F)F)o2)cn1)c1ccc(C)c(F)c1 | 2727 |
| CS(=O)(=O)N(Cc1ccc(-c2nnc(C(F)F)o2)cc1F)c1cncnc1 | 1563 |
| CS(=O)(=O)N1CCN(CCCS(=O)(=O)N(Cc2ccc(-c3nnc(C(F)F)o3)cc2)c2ccccc2)CC1 | 8300 |
| O=S(=O)(C1CCN(C2COC2)CC1)N(Cc1ccc(-c2nnc(C(F)F)o2)cc1)c1ccccc1 | 2634 |
| CS(=O)(=O)N(Cc1ccc(-c2nnc(C(F)F)o2)cc1F)c1ccccc1Cl | 1266 |
| CS(=O)(=O)N(Cc1ccc(-c2nnc(C(F)(F)F)o2)cc1F)c1ccc(Cl)cc1 | 775 |
| COCCN1CCN(CCS(=O)(=O)N(Cc2ccc(-c3nnc(C(F)F)o3)cc2)c2ccccc2)CC1 | 1039 |
| CS(=O)(=O)N(Cc1ccc(-c2nnc(C(F)F)o2)cn1)c1cccc(Cl)c1 | 12500 |
| NC(=O)[C@H]1CCCN1CCS(=O)(=O)N(Cc1ccc(-c2nnc(C(F)F)o2)cn1)c1ccccc1 | 661 |
| O=S(=O)(C1CCN(C2CC(O)C2)CC1)N(Cc1ccc(-c2nnc(C(F)F)o2)cc1)c1cccc(Cl)c1 (stereo not drawn) | 1718 |
| Cc1cccc(N(Cc2ccc(-c3nnc(C(F)F)o3)cc2)S(=O)(=O)C2CCN([C@H]3CC[C@H](C(F)(F)F)CC3)CC2)c1 | 101 |
| O=S(=O)(CCN1CCC[C@@H]1CO)N(Cc1ccc(-c2nnc(C(F)F)o2)cc1)c1ccccc1 | 4587 |
| COc1ccccc1C1CCN(CCS(=O)(=O)N(Cc2ccc(-c3nnc(C(F)F)o3)cc2)c2ccccc2)CC1 | 103 |
| CS(=O)(=O)N(Cc1ccc(-c2nnc(C(F)F)o2)cc1F)c1cccnc1 | 2631 |

---

Target: human recombinant HDAC6 (Homo sapiens)
Construct: purchased Calbiochem 382180
Experiment: HDAC6 enzyme activity inhibition assay (HDAC Fluorimetric Drug Discovery Kit)
Assay type: biochemical
Conditions: HDAC1 vs HDAC6
Category | rule: reported HDAC6 selectivity (fold) within range, see bucket A (below 1000 fold), bucket B (1000 fold to below 3000 fold), bucket C (3000 fold or more)

| compound | label |
| --- | --- |
| O=S(=O)(C1CCN(C2CC(F)C2)CC1)N(Cc1ccc(-c2nnc(C(F)F)o2)cc1)c1cccc(Cl)c1 (stereo not shown) [Compound 11840] | bucket A |
| Cc1cccc(N(Cc2ccc(-c3nnc(C(F)F)o3)cn2)S(=O)(=O)C2CCN(C3COC3)CC2)c1 [Compound 11684] | bucket C |
| CS(=O)(=O)NCc1ccc(-c2nnc(C(F)(F)F)o2)cc1 [Compound 11121] | bucket A |
| O=S(=O)(CCN1CCCC1)N(Cc1ccc(-c2nnc(C(F)F)o2)cc1)c1ccccc1 [Compound 11645] | bucket B |
| CC(C)(C)OC(=O)N(C(=O)C(F)F)C1CCN(CCS(=O)(=O)N(Cc2ccc(-c3nnc(C(F)F)o3)cc2)c2ccccc2)CC1 [Compound 11677] | bucket B |
| O=S(=O)(C1CCN(C2CC(F)C2)CC1)N(Cc1ccc(-c2nnc(C(F)F)o2)cn1)c1cccc(Cl)c1 (stereo not shown) [Compound 11841] | bucket B |
| O=S(=O)(C1CCN(C2COC2)CC1)N(Cc1ccc(-c2nnc(C(F)F)o2)cc1)c1cccc(Cl)c1 [Compound 11681] | bucket C |
| Cc1ccccc1N(Cc1ccc(-c2nnc(C(F)(F)F)o2)cc1F)S(C)(=O)=O [Compound 11248] | bucket A |
| CCCS(=O)(=O)N(Cc1ccc(-c2nnc(C(F)F)o2)cc1F)c1ccccc1 [Compound 11289] | bucket C |
| CCS(=O)(=O)N(Cc1ccc(-c2nnc(C(F)F)o2)cn1)c1cc(F)cc(F)c1 [Compound 11463] | bucket B |

The values you see were collected from patent US10538498B2.
